The measurements presented in this section are drawn from paper PMC9482650.

testedSystem: TJP1_2, Q07157
Sequence (Q07157 181-274): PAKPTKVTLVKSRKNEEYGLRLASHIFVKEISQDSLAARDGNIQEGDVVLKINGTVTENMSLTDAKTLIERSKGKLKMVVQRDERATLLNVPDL
assay: holdup assay
Parameters: key: below the threshold = too weak to quantify, mostly under pKd 3.1 to 4
experimentalSetup: plain residues with an end cap or a label only (N-terminal biotin on a linker: ado-ado)
experimentalEndpoint: pKd

The cases that follow already have their pKd on record.
{"binder": "SQPLLVHDDV [KIT, P10721]", "pKd": 3.5}
{"binder": "SAGADSETHC [SLCO1B1, Q9Y6L6]", "pKd": "below the threshold"}
{"binder": "RDYTQSSSSL [GRM5, P41594]", "pKd": "below the threshold"}
{"binder": "PKSNSSKEYV [CLDN7, O95471]", "pKd": "below the threshold"}
{"binder": "PSDSVGKDVF [EGLN1, Q9GZT9]", "pKd": "below the threshold"}

Respectfully, I request pKd for each entry included below.
1. EKPIDSETKM [SLC1A3, P43003]
2. DAAHHDESNC [FMNL3, Q8IVF7]
3. SGDGKTSVWI [GJC1, P36383]
4. VCMGDHWFDV [PRKN, O60260]

### Response
1: below the threshold; 2: below the threshold; 3: 5; 4: below the threshold
